- TESTED_ON: Potassium voltage-gated channel subfamily KQT member 1 (Homo sapiens) (UniProt P51787)
- Sequence (P51787 whole entry, looked up): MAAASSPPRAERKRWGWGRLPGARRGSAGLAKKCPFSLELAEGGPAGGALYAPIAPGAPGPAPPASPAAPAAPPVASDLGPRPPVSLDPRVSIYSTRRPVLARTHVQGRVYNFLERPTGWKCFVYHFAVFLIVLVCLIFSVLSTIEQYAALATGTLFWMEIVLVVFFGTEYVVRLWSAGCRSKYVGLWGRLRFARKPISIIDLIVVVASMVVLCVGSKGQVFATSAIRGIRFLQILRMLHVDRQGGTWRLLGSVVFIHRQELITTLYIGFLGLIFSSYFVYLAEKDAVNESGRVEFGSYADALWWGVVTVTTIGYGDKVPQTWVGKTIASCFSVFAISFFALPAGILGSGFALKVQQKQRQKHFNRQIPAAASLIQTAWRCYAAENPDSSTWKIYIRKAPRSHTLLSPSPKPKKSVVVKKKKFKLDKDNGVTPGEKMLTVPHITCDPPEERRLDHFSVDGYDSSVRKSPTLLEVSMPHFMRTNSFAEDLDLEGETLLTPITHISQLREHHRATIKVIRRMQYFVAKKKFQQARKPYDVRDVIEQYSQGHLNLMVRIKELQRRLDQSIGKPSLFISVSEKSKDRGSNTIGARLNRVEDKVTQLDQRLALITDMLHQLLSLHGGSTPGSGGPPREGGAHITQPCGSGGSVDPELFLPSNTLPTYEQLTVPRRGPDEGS
- ASSAY_INFO: KCNQ1 potassium channel potentiators, confirmation, FluxOR thallium flux, CHO cells, duplicates (AID 493007)
- EXPERIMENTAL_SETUP: KCNQ1 cell line, FluxOR thallium flux fluorescence, at 10 µM, % of reference activator effect, buffer zero
Activity calls are given as the source filed them.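 The calls were made as follows: active = potentiation averaged over duplicate wells exceeding buffer-only control mean by more than 3 SD; inactive = the rest.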
Assign a class; possible classes are Yes = active, No = inactive

These recorded examples may help you get a feel for the data.
1) COc1ccccc1N1CCN(C(=O)C2CCN(C(=O)c3cccc(Cl)c3)CC2)CC1 : No
2) CCOC(=O)c1cccc(NC(=O)CCc2nnc3ccc(N4CCCCC4)nn23)c1 : No
3) COc1cccc(/C=N/NC(=O)C(C)n2nc(C)c([N+](=O)[O-])c2C)c1O (configuration not stated) : No
4) CCCc1cc2c(=O)c(-c3ccccn3)c(C)oc2cc1O : No
5) O=C(Nc1nnc(-c2cccs2)o1)c1cccc(C(F)(F)F)c1 : Yes

Input line: Could you please tell me the result logged for `CCOC(=O)c1ccccc1NC(=O)CSc1nc2ccccc2n1CC(=O)N1CCCC1` in this assay?
Output line: No

Input line: Identify the outcome logged in this assay for the compound shown: `CC(=O)Oc1c(-c2ccco2)oc2ccccc2c1=O`
Output line: Yes

Input line: Field: outcome | Entry: `O=C(NC(=S)NCCC1=CCCCC1)c1ccco1`
Output line: Yes

Input line: Assay result, entry `CCCCCc1ccc(C(=O)CCCC)c(=S)[nH]1` — outcome?
Output line: Yes

Input line: Query: recorded result category for `CC(=O)n1cc(N(C(=O)CCl)c2ccc(C)cc2)c2ccccc21` in this test
Output line: No

Input line: Could you kindly confirm the outcome this assay logged for `CCn1c(=S)[nH]c2c(c1=O)C(C)(C)Cc1ccccc1-2` ?
Output line: No

Input line: What call does the record list for `Oc1oc(-c2ccccc2)nc1/C=N/c1nccs1` ?
Output line: Yes

Input line: Kindly provide the recorded test outcome for the following compound: `CC(C)Oc1cccc(C(=O)NC(=S)N2CCN(c3ccc(C(F)(F)F)cc3[N+](=O)[O-])CC2)c1`
Output line: Yes

Input line: What classification did `CCOC(=O)c1c(NS(=O)(=O)c2cccc(OC)c2)sc2c1CCC2` end up with in this test?
Output line: Yes

Input line: Record lookup: outcome of this test for `Cn1cc(-c2nnnn2-c2ccccc2)c(=O)c2ccccc21` ?
Output line: No

Input line: So what was the verdict on `CCSc1nnc(NC(=O)[C@H](C)NC(=O)c2ccccc2Cl)s1` in this test?
Output line: No

Input line: In this assay, the call recorded for `CC(=O)O[C@H]1CSC[C@H]1NC(=O)c1ccccc1` was what?
Output line: No

Input line: Tell me the assay call for `C/C(=N/NC(=S)Nc1cccc(C)c1)c1cccc([N+](=O)[O-])c1` please.
Output line: Yes

Input line: What is the recorded call for this compound in the test? `CCOC(=O)c1ccc(Nc2nc(N3CCOCC3)nc(N3CCOCC3)n2)cc1`
Output line: No

Input line: What is the recorded call for this compound in the test? `COc1cc(CNCc2ccccn2)ccc1OCc1c(Cl)cccc1Cl`
Output line: No

Input line: Please indicate how the test categorized CC1(c2ccc(OC(F)F)cc2)NC(=O)N(CC(=O)Nc2ccc(OC(F)F)cc2)C1=O (configuration not stated) .
Output line: No

Input line: For this compound, state the assay outcome: `CCn1nc(C)c(NC(=O)c2cnn3c(C(F)F)cc(-c4ccccc4)nc23)c1C`
Output line: No

Where do the numbers come from? From PubChem BioAssay.
